Measured Velvetleaf plant response rating by item
system: velvetleaf; experiment: Test B pre/postemergence velvetleaf; assay type: in vivo, Abutilon theophrasti; conditions: Preemergence, Rate 500 g/ha; scale 0 to 10, 0 is no effect, 10 is complete control
Would you mind answering with just the numeric figure?

Sample answers from the record:
> print(dat)
                                   compound  observed.measurement
1  COC(C)n1c(=O)on(C(=O)N(c2ccc(F)cc2)C(C)C)c1=O (stereo not shown)                     0
2  CC(C)N(C(=O)n1oc(=O)n(CC#N)c1=O)c1ccc(F)cc1F                     0
3  CSCCn1c(=O)on(C(=O)N(c2ccccc2)C(C)C)c1=O                     4

Incoming: Give its Velvetleaf plant response rating value. Item: CC(C)N(C(=O)n1oc(=O)n(CCC#N)c1=O)c1ccc(F)cc1F
Outgoing: 6

* * *

tested on: wheat; assay: Test B pre/postemergence wheat; format: in vivo, Triticum aestivum; settings: Preemergence, Rate 500 g/ha; scale 0 to 10 (0 no effect, 10 complete control)
measure.name: Wheat plant response rating
Would you mind answering with just the numeric figure?

> print(dat)
                                   compound  observed.measurement
1  C=C(C)Cn1c(=O)on(C(=O)N(c2ccc(F)cc2)C(C)C)c1=O                     4
2  CCOC(=O)Cn1c(=O)on(C(=O)N(c2ccc(F)cc2)C(C)C)c1=O                     0
3  Cc1ccccc1-n1c(=O)on(C(=O)N(c2ccc(-c3ccccc3)cc2)C(C)C)c1=O                     0
4  CCn1c(=O)on(C(=O)N(c2ccc(F)cc2F)C(C)C)c1=O                     8

Here's the next entry for you.
Incoming: Form field: Wheat plant response rating recorded for CC1CCCCC1n1c(=O)on(C(=O)N(c2ccc(F)cc2)C(C)C)c1=O (centres unmarked) with wheat (enter value)
Outgoing: 2

* * *

Measured Plant response rating, B. signalgrass by item
tested on: surinam grass; assay: Test B pre/postemergence surinam grass; format: in vivo, Brachiaria decumbens; details: Preemergence, Rate 125 g/ha; scale 0 to 10 (0 no effect, 10 complete control)

> print(dat)
                           molecular.string            tgt                           measure.name  observed.measurement
1  CCn1c(=O)on(C(=O)N(c2ccc(F)cc2F)C(C)C)c1=O  surinam grass  Plant response rating, B. signalgrass                     8
2  CCn1c(=O)on(C(=O)N(c2ccc(F)cc2)C(C)C)c1=O  surinam grass  Plant response rating, B. signalgrass                     7
3  COc1ccc(N(C(=O)n2oc(=O)n(-c3ccccc3C)c2=O)C(C)C)cc1  surinam grass  Plant response rating, B. signalgrass                     0

Incoming: Give its Plant response rating, B. signalgrass value. Item: Cc1ccccc1-n1c(=O)on(C(=O)N(c2ccc(F)cc2F)C(C)C)c1=O
Outgoing: 0

Incoming: How about this compound: CCN(CC)C(=O)n1oc(=O)n(-c2ccc(OC(F)(F)F)cc2)c1=O
Outgoing: 0

Incoming: How about this compound: CC(C)N(C(=O)n1oc(=O)n(-c2ccccc2Cl)c1=O)c1ccc(F)cc1
Outgoing: 0
